studyTarget: PHGDH (Homo sapiens (Human), UniProt O43175)
Sequence (O43175 whole entry): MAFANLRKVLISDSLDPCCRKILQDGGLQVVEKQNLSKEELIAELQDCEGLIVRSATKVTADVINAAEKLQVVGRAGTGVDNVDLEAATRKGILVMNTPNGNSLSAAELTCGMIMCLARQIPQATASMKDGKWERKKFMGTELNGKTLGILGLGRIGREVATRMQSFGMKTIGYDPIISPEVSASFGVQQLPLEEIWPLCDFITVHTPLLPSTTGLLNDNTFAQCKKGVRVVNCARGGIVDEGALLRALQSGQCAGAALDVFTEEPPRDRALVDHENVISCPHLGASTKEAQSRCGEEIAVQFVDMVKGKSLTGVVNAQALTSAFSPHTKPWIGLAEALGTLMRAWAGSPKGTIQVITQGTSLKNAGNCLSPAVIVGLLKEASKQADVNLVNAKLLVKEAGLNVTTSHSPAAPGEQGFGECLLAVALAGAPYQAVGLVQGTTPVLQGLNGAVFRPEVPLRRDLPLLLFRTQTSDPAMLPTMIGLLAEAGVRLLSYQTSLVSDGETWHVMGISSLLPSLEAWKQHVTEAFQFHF
procedureText: PHGDH inhibition, coupled assay with PSAT1/PSPH and diaphorase/resazurin readout
Format: biochemical
reportedConditions: Table E9; mixture with PSAT1, PSPH; diaphorase/resazurin reporter
pIC50: −log10 of the molar value.
metricName: pIC50

Illustrative cases are given below, each with its answer.
molecule: FC(F)(F)c1ccc(N2CCN(C(=S)Nc3ccccn3)CC2)cc1
result: 5.00 to 5.30
--
molecule: Cc1ccnc(NC(=S)NC2CCN(c3cccc(C(F)(F)F)c3)CC2)c1
result: 4.70 to 5.00
--
molecule: FC(F)(F)c1cccc(N2CCN(C(=S)Nc3nccc4cccnc34)CC2)c1
result: 4.70 to 5.00
--
molecule: FC(F)(F)c1cccc(N2CCN(C(=S)Nc3ccccn3)CC2)c1
result: 5.00 to 5.30
--
molecule: FC(F)(F)c1cccc(N2CCN(C(=S)Nc3cccnc3)CC2)c1
result: > 5.30
--
molecule: Cc1cc(C)nc(NC(=S)N2CCN([S+](=O)([O-])c3cccc(C(F)(F)F)c3)CC2)c1
result: > 5.30
--
molecule: FC(F)(F)c1cccc(N2CCN(C(=S)Nc3ccc4ccccc4n3)CC2)c1
result: 4.70 to 5.00
--
molecule: Cc1cc(C)nc(NC(=S)N2CCN(Cc3cccc(F)c3)CC2)c1
result: 4.70 to 5.00

Supply reported pIC50 belonging to this molecule: Cc1ccnc(NC(=S)N2CCCc3ccc(C(F)(F)F)cc32)c1
≤ 4.70

Supply recorded pIC50 for Cc1ccnc(NC(=S)N2CCN(c3ccc(Cl)cc3)CC2)c1 here.
≤ 4.70

Fill in reported pIC50 for this entry: Cc1cc(C)nc(NC(=S)N2CCN(c3ccsc3)CC2)c1
≤ 4.70

Check the records and state pIC50 for FC(F)(F)c1cccc(N2CCN(C(=S)Nc3ccncc3)CC2)c1
4.70 to 5.00

Let me know recorded pIC50 for Cc1cc(C)nc(NC(=S)N2CCN(c3cccc(C(F)(F)F)n3)CC2)c1 , thanks.
5.00 to 5.30

Return value of pIC50 for input Cc1cc(C)nc(NC(=S)N2CCN(Cc3ccc(C(F)(F)F)c(Cl)c3)CC2)c1 , no commentary.
5.00 to 5.30
